meta.source: PubChem BioAssay AID652039

Target: Kallikrein-7 (Homo sapiens)
Test: activation of human kallikrein-7 proenzyme – biochemical, fluorescence intensity, primary screen (AID 652039)
Conditions: purified proKLK7, EDANS-DABCYL substrate fluorescence; at 7 µM; 100% is mature enzyme control, 0% vehicle
In all, about 370,000 compounds went through this assay and about 3,300 (0.89%) were called active.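 The calls were made as follows: active = activation above the mean of all tested compounds plus 3 SD, computed per campaign excluding outliers beyond control limits (cut at about 13% in these data); inactive = the rest.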 Shown is part of a subset that was picked to be rich in actives.
Outcomes: active, inactive

molecule: O=C(NCCN1CCN(Cc2ccccc2)CC1)c1cc2c(=O)[nH]c3ccccc3c2s1
group_label: inactive
--
molecule: CCN(CC)CCCNC(=O)c1cc2c(=O)[nH]c3ccc(C)cc3c2s1
group_label: active
--
molecule: O=C(O)c1ccc2c3c(cccc13)C(=O)N(OS(=O)(=O)c1ccccc1)C2=O
group_label: active
--
molecule: Cc1cccc(NC(=O)/C=C/c2ccc3c(c2)OCO3)n1
group_label: inactive
--
molecule: O=C(NCc1cccnc1)c1ccc2nc([C@@H]3O[C@H](CO)[C@H](O)[C@H](O)[C@H]3O)[nH]c2c1
group_label: inactive
--
molecule: Cc1ccccc1CN1CCCCC(NC(=O)Nc2ccccc2F)C1=O (centres undefined)
group_label: inactive
--
molecule: O=C(/C=C/c1ccc2c(c1)OCCO2)c1ccc(O)cc1
group_label: active
--
molecule: CCCOc1ccc(Oc2c(Cl)cnn(Cc3cccc4ccccc34)c2=O)cc1
group_label: inactive
--
molecule: Cc1cc(-c2nnc(SCC(=O)Nc3ccc(S(N)(=O)=O)cc3)n2N)n[nH]1
group_label: inactive
--
molecule: O=C(CSc1nnc(-c2cccc(Cl)c2)n1Cc1ccco1)Nc1ccc(OCc2ccccc2)cc1
group_label: inactive
--
molecule: CCOc1ccc(-n2c(SCC(=O)Nc3cc(C)c(NC(=O)c4ccccc4)cc3OC)nnc2-c2cccs2)cc1
group_label: active
--
molecule: COc1ccc(-n2c(SCC(=O)Nc3ccccc3-c3ccccc3)nnc2-c2cccnc2)cc1
group_label: inactive
--
molecule: Cc1cccc(N(C)C(=O)c2cc3c(=O)[nH]c4ccc(C)cc4c3s2)c1
group_label: inactive
--
molecule: COc1cccc(-c2ccc3c(c2)S(=O)(=O)c2cccc(C(=O)O)c2C3=O)c1OC
group_label: inactive

###

Molecular target: Kallikrein-7 (Homo sapiens)
Assay: activation of human kallikrein-7 proenzyme – biochemical, fluorescence intensity, primary screen (AID 652039)
Conditions: purified proKLK7, EDANS-DABCYL substrate fluorescence; at 7 µM; stronger effect = higher value; 100% is mature enzyme control, 0% vehicle
About 3,300 (0.89%) of roughly 370,000 compounds were called active. Many of the other results were omitted from the sample, so actives are more common in it than they were.
quantity_kind: activation

compound: CN(C(=O)C1CCOC1)c1nnc(-c2cccnc2)s1 (stereo unspecified)
test_result: 1.7% (inactive)

compound: Cc1ccc(C(=O)C2CCN(CC(=O)NCCC(C)C)CC2)cc1
test_result: 1.04% (inactive)

compound: CC(c1ccc(N)cc1)c1cn(C)c2ccccc12 (stereo unspecified)
test_result: 0.46% (inactive)

compound: CCCCCCCCNS(=O)(=O)/C=C/c1cc(C)ccc1CNC(=O)OC(C)(C)C
test_result: 0.37% (inactive)

compound: O=C(Nc1ccc(Br)cc1)OCCN1C(=O)CCC12CCC(c1ccccc1)CC2 (stereo unspecified)
test_result: 0.49% (inactive)

compound: CN1CCCc2nc(-c3ccccc3)ccc21
test_result: 7.88% (inactive)
